Reported ELISA [abs. corr.] values are given for each entry in this list.
SYSTEM_UNDER_TEST: T1, CD27 protein (His-tagged, Sino Biological Inc. 10039-H08B1) (human, UniProt P26842 20-192)
T1 construct: bought protein coated on ELISA plates; also called TNFRSF7; not shown: His tag
T1 sequence (looked up): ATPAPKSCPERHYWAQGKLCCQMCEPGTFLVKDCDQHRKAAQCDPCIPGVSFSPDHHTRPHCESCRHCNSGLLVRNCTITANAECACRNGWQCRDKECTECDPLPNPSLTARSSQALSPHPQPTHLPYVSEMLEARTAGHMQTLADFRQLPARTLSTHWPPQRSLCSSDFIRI
RUN_DESCRIPTION: ELISA, coated His-tagged CD27; also: test concentration or dose not given here
Write the value in abs. corr. as a bare number.

Reported ELISA [abs. corr.] for P018.S.05.A.D06 (antibody, V domains shown, V regions on human Ig constant parts; also called AB27_88) VH: QSVEESGGRLVTPGTPLTLTCTVSGFSLSSYWMSWVRQAPGKGLEWIGFIYGGSGDKYYASWAKGRFAISKTSTTVDLKITSPTTEDTATYFCARGGDGDGTYSSLWGQGTLVTVSS VL: AQVLTQTPSPVSAAVGGTVTISCQSSESVAGKNLAWYQQKPGQPPKVLIYGTSNLASRVPSRFRGSGSGTQFTLTISDLESDDAATYYCQGYYSGGIYGFGGGTEVVVE : what is it?
2.93

Next binder up: P018.S.07.A.A02 (antibody, V domains shown, V regions on human Ig constant parts; also called AB27_113) VH: QSVEESGGRLVTPGTPLTLTCTVSGFSLSSYVMSWVRQAPGKGLEWIGYIDYGGAPYYASWAKGRFTISKTSTTVELKITSPTIEDTATYFCARGGYGGYVLVTVLWGPGTLVTVSS VL: DVVMTQTPASVSEPVGGTVTIKCQASQNIYSSLAWYQQKPGQPPKLLIYQASRLASEVPSRFKGSGSGTEFTLTISDLESADAATYYCQTYYGGSTYGNGFGGGTEVVVE
3.08

Next binder up: P018.S.05.A.F05 (as anti-CD27 antibody) (antibody, V domains shown, V regions on human Ig constant parts; also called AB27_92) VH: QSVEESGGRLVTPGTPLTLTCTVSGFSLSNYYMTWVRQAPGKGLEYIGIIGSGVSTYYANWAKGRFTISKASSTTVDLKMTSPTTEDTATYFCARDMYVGNWGDWGLWGQGTLVTVSS VL: AYDMTQTPASVEVAVGGTVTIKCQASQSISNNLNWYQQKPGQPPKLLIYSVSTLASGVPSRFKGSGSGTDYTLTISGVESVDAATYYCQQDYRIGDLDSAFGGGTEVVVK
2.31

Next binder up: P018.S.05.A.D03 (antibody, V domains shown, V regions on human Ig constant parts; also called AB27_86) VH: QEQLEESGGDLVQPEGSLTLTCTVSGFSFNSNYWICWVRQAPGKGLEWIACIMTGDGSTYYATWAKGRFTISKTSSTTVTLQMTSLTAADTATYFCARGYDGIHGGDNYGHVFNLWGPGTLVTVSS VL: AFELTQTPFSVSAVVGGTVTINCQASENIYSLLAWYQQKPGQPPKLLIYRASTLASGVPSRFKGSGSGTQFTLIISDLESGDAATYYCQSYYINSSNSFGGGTEVVVK
3.1

Next binder up: P018.S.03.A.D04 (antibody, V domains shown, V regions on human Ig constant parts; also called AB27_49) VH: QEHLEESGGGLVQPGGTLTLTCKASGIDFSSSYYMCWVRQAPGKGLERLACTYNRDGSTYYASWAKGRFTISKTSSTTVTLQMTSLTVADTATYFCARDDGYPGSGYVLNLWGPGTLVTVSS VL: DVVMTQTPASVEAAVGGTVTIRCQASQSVSNYFSWYQQKPGQPPKLLIYGASNLESGVPSRFKGSGSGTEFTLTISGVQSDDAATYYCQGGYYSSNTDNNSFGGGTEVVVK
3.1

New cases:
Reported ELISA [abs. corr.] for P018.S.09.A.E02 (antibody, V domains shown, V regions on human Ig constant parts; also called AB27_153) VH: QSLEESGGRLVTPGTPLTLTCTASGFTISSHHMTWVRQAPGEGLEWLGVIFPSGHTYYTSWAKGRFTISRTSTTVDLKMASLTIEDTATYFCVRDVGYFTLWGQGTLVTVSS VL: AQVLTQTPSPVSAAVGGTVTISCQSSESVGGNNWLAWYQQKLGQPPKLLIYGASTLASGVPSRFSGSGSGTQFTLTISEVQSDDAATYYCQGYYSDVTNAFGGGTEVVVE : what is it?
2.98

Next binder up: P018.S.05.A.A06 (antibody, V domains shown, V regions on human Ig constant parts; also called AB27_82) VH: QSLEESGGRLVTPGTPLTLTCTVSGIDLNNNAMSWVRQAPGEGLEWIGIISTAGTTTYASWTKGRFTISKTSTTVDLKITSPTTEDTATYFCARAAYFSYGYINLWGQGTLVTVSS VL: DIVMTQTPASVEAAVGGTVTIKCQASQNIGNALAWYQQKSGQPPKLLIYSASTLASGVPSRFKGSGSGTEFTLTISDLESADATTYFCQSYVYSDGNVFGGGTEVVVK
3.11

Next binder up: P018.S.10.A.H05 (antibody, V domains shown, V regions on human Ig constant parts; also called AB27_186) VH: QSLEESGGRLVTPGTPLTLTCTASGFSLSTYYMSWVRQAPGKGLEWIGIIYTSGSTYYASWAKGRFTISRNSTTVDLKITSPTTEDTATYFCARSRVPGDTTGLYYFNLWGPGTLVTVSS VL: ALVMTQTPASVSAAVEGTVTINCQASENIYSNLAWYQQKPGQPPKLLIYHTSNLASGVPSRFKGSGAGTEFTLTISDLESDDAATYYCQSAYDSSSSDTFTFGGGTEVVVK
2.96

Next binder up: P018.S.05.A.E03 (antibody, V domains shown, V regions on human Ig constant parts; also called AB27_89) VH: QSLEESGGRLVTPGGSLTLTCTVSGIDLSSYAMGWVRQAPGKGLEWIGYITYGGSTYYANWVNGRFTISKTSTMVDLKMTSLTAADTATYFCARLRAPYYYRIYFNLWGPGTLVTVSS VL: ALVMTQTPSSVEAAVGGTVTIKCQASQNIISALAWYQQKPGQPPKLLIYDASNLESGVPSRFKGSGSGTDFTLTISDLESADAATYYCQGAYDTNINDFGGGTEVVVK
3.07

Next binder up: P018.S.03.A.D05 (antibody, V domains shown, V regions on human Ig constant parts; also called AB27_50) VH: QSLEESGGRLVTPGTPLTLTCTASGFSLSSYYITWVRQAPGEGLEWIGTISTAGNTYFASWANGRFTISRTSTTVDLKMTSPTTEDTATYFCARDGAGDSNYYRNLWGQGTLVTVSS VL: DIVLTQTPASVEAAVGGTVTIKCQASQSIDRFLAWYQQKPGQPPKLLIYDASDLASGVPSRFSGSGYGTEFTLTISGVQSEDAATYYCQQGYYISDIHNVFGGGTEVVVK
3.12
